Biological target: furin, P09958;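 further: purified furin at 1:10 enzyme:substrate in 50 mM HEPES pH 7.5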
Sequence (P09958 whole entry): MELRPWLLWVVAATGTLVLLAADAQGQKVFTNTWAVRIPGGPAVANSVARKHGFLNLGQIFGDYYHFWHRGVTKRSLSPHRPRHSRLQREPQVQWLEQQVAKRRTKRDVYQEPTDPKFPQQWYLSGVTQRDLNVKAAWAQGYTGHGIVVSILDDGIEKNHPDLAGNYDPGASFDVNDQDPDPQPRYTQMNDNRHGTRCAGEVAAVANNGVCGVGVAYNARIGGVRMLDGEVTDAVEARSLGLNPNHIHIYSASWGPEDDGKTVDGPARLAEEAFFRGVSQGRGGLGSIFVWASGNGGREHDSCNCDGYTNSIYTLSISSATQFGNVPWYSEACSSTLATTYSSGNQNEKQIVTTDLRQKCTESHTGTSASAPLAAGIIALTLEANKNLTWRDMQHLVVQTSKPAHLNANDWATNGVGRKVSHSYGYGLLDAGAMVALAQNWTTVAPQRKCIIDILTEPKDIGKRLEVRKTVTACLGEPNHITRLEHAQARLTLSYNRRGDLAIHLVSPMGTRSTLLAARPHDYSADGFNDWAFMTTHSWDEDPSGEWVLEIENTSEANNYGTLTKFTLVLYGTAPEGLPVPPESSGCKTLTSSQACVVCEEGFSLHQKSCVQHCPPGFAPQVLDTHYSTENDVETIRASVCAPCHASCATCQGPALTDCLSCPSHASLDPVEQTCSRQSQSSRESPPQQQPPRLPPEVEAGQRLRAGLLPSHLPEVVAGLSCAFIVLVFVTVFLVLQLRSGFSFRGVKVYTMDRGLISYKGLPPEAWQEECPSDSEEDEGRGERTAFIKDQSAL
Assay: furin cleavage Z-score vs untreated control; higher = more cleavage, active = 3.5 or more, inactive = 1 or less, 8 variable residues between constant flanks
Details: 30 min
Some of the results follow. The hit rate among all sequences tested is not known here.
The reply should name one outcome from active, inactive

# count of solved cases: 4
[
  {
    "ITEM_SEQUENCE": "CARRFRPRRSAGNASASA [FS-1073]",
    "CATEGORY": "active"
  },
  {
    "ITEM_SEQUENCE": "CAGWFTAGYSAGNASASA [HC1645]",
    "CATEGORY": "inactive"
  },
  {
    "ITEM_SEQUENCE": "CATTPCSGSWAGNASASA [HC54]",
    "CATEGORY": "inactive"
  },
  {
    "ITEM_SEQUENCE": "CAPGQRVEFLAGNASASA [HC1469]",
    "CATEGORY": "inactive"
  }
]

Query: recorded result category for CARQRRALERAGNASASA [FS-2510] in this test
active

Query: recorded result category for CARQRRGEERAGNASASA [FS-2761] in this test
inactive
